Tested on: Karpas 299
Test: CellTiter-Glo (CTG) cell proliferation assay, 72 hours
Format: cell-based
Conditions: Homo sapiens, Anaplastic Large Cell Lymphoma
pIC50: −log10 of the molar value.
experimental_readout: pIC50

molecule="O=C1CCC(N2Cc3cc(CNC(=O)C(F)(F)c4ccc(Cl)cc4)ccc3C2=O)C(=O)N1 (stereo not shown)" target_or_test_system="Karpas 299" value="< 5.00"

###

Tested on: OCI-AML3
Experiment: IncuCyte live cell imaging of cell viability, Red-labeled cell line
Format: cell-based
Details: Homo sapiens, OCI-AML-3, 96 hr, read-out: Inhibition of Cell Viability EC50
pEC50: −log10 of the molar value.
experimental_readout: pEC50

compound="O=C1CCC(N2Cc3cc(CNC(=O)C(F)(F)c4ccc(Cl)cc4)ccc3C2=O)C(=O)N1 (stereo not shown)" experimental_readout=pEC50 value=6.73

###

Test system: MOLM-13
Assay: IncuCyte Kinetic Caspase-3/7 Apoptosis Assay
Assay type: cell-based
Settings: Homo sapiens, 72 hr, read-out: Compound 1-induced Apoptosis EC50
pEC50: −log10 of the molar value.
experimental_readout: pEC50

compound="O=C1CCC(N2Cc3cc(CNC(=O)C(F)(F)c4ccc(Cl)cc4)ccc3C2=O)C(=O)N1 (stereo not shown) [Compound 1]" experimental_readout=pEC50 value=6.81

###

System: UT-7
Assay: IncuCyte Kinetic Caspase-3/7 Apoptosis Assay
Assay type: cell-based
Conditions: Homo sapiens, UT7, 96 hr, read-out: Compound 1-induced Apoptosis EC50
experimental_readout: EC50 (nM)

molecule="O=C1CCC(N2Cc3cc(CNC(=O)C(F)(F)c4ccc(Cl)cc4)ccc3C2=O)C(=O)N1 (stereo not shown)" experimental_readout=EC50 value=168

###

Tested on: Ramos
Test: CellTiter-Glo (CTG) cell proliferation assay, 72 hours
Format: cell-based
Settings: Homo sapiens, Burkitt Lymphoma
experimental_readout: IC50

compound="O=C1CCC(N2Cc3cc(CNC(=O)C(F)(F)c4ccc(Cl)cc4)ccc3C2=O)C(=O)N1 (stereo not shown)" experimental_readout=IC50 value="> 10 µM"

###

System: OCI-AML2
Assay: IncuCyte live cell imaging of cell viability, Red-labeled cell line
Assay type: cell-based
Details: Homo sapiens, 24 hr, read-out: Inhibition of Cell Viability EC50
experimental_readout: EC50 (µM)

molecule="O=C1CCC(N2Cc3cc(CNC(=O)C(F)(F)c4ccc(Cl)cc4)ccc3C2=O)C(=O)N1 (stereo not shown) [Compound 1]" target_or_test_system=OCI-AML2 value=0.387

###

Tested on: HNT-34
Experiment: IncuCyte Kinetic Caspase-3/7 Apoptosis Assay
Format: cell-based
Conditions: Homo sapiens, 96 hr, read-out: Compound 1-induced Apoptosis EC50
pEC50: −log10 of the molar value.
experimental_readout: pEC50

compound="O=C1CCC(N2Cc3cc(CNC(=O)C(F)(F)c4ccc(Cl)cc4)ccc3C2=O)C(=O)N1 (stereo not shown)" target_or_test_system=HNT-34 value=8.70

###

System: Blue-1
Experiment: CellTiter-Glo (CTG) cell proliferation assay, 72 hours
Assay type: cell-based
Conditions: Homo sapiens, Burkitt Lymphoma
Method: Preparation of Solutions of Test Article: Compounds were plated into black 384-well plates (Corning Inc.) to a final DMSO volume of 0.1% assuming a maximal volume of 50 μL. […] Cell Proliferation Assays: The effect of Compound 1 on the proliferation/viability of the hematological cell lines (Table 1 Table, Table 2 and Table 3), THLE-2, or PBMCs was assessed after 72 hours incubation using CTG (Promega), according to manufacturer's instructions. […]
experimental_readout: IC50 (nM)

compound="O=C1CCC(N2Cc3cc(CNC(=O)C(F)(F)c4ccc(Cl)cc4)ccc3C2=O)C(=O)N1 (stereo not shown) [Compound 1]" unit_name=nM value=986

###

Tested on: HNT-34
Assay: IncuCyte Kinetic Caspase-3/7 Apoptosis Assay
Format: cell-based
Details: Homo sapiens, 48 hr, read-out: Compound 1-induced Apoptosis EC50
experimental_readout: EC50

compound="O=C1CCC(N2Cc3cc(CNC(=O)C(F)(F)c4ccc(Cl)cc4)ccc3C2=O)C(=O)N1 (stereo not shown)" experimental_readout=EC50 value="4 nM"

###

System: GDM-1
Test: IncuCyte Kinetic Caspase-3/7 Apoptosis Assay
Type: cell-based
Settings: Homo sapiens, 96 hr, read-out: Compound 1-induced Apoptosis EC50
pEC50: −log10 of the molar value.
experimental_readout: pEC50

compound="O=C1CCC(N2Cc3cc(CNC(=O)C(F)(F)c4ccc(Cl)cc4)ccc3C2=O)C(=O)N1 (stereo not shown)" experimental_readout=pEC50 value=7.60

###

Test system: RC-K8
Experiment: CellTiter-Glo (CTG) cell proliferation assay, 72 hours
Assay type: cell-based
Details: Homo sapiens, RCK8, Diffuse Large B-cell Lymphoma (activated B-cell like)
experimental_readout: IC50 (nM)

compound="O=C1CCC(N2Cc3cc(CNC(=O)C(F)(F)c4ccc(Cl)cc4)ccc3C2=O)C(=O)N1 (stereo not shown)" experimental_readout=IC50 unit_name=nM value=956

###

Test system: Red-labeled AML cell lines
Assay: IncuCyte live cell imaging of cell viability, sub-panel of twelve Red-labeled AML cell lines
Format: cell-based
Settings: Homo sapiens, 96 h, seven highly sensitive cell lines, read-out: cell viability average EC50 96hr
pEC50: −log10 of the molar value.
experimental_readout: pEC50

compound="O=C1CCC(N2Cc3cc(CNC(=O)C(F)(F)c4ccc(Cl)cc4)ccc3C2=O)C(=O)N1 (stereo not shown) [Compound 1]" value=7.82

###

Tested on: AML-193
Experiment: IncuCyte live cell imaging of cell viability, Red-labeled cell line
Assay type: cell-based
Settings: Homo sapiens; Red-labeled AML-193; 24 hr; read-out: Inhibition of Cell Viability EC50
experimental_readout: EC50 (nM)

molecule="O=C1CCC(N2Cc3cc(CNC(=O)C(F)(F)c4ccc(Cl)cc4)ccc3C2=O)C(=O)N1 (stereo not shown)" value=10

###

Test system: MV-4-11
Test: IncuCyte Kinetic Caspase-3/7 Apoptosis Assay
Format: cell-based
Conditions: Homo sapiens, MV4-11, 24 hr, read-out: Compound 1-induced Apoptosis EC50
pEC50: −log10 of the molar value.
experimental_readout: pEC50

compound="O=C1CCC(N2Cc3cc(CNC(=O)C(F)(F)c4ccc(Cl)cc4)ccc3C2=O)C(=O)N1 (stereo not shown)" value=6.78

###

System: HL-60
Assay: IncuCyte live cell imaging of cell viability, Red-labeled cell line
Type: cell-based
Conditions: Homo sapiens; Red-labeled HL-60; 96 hr; read-out: Inhibition of Cell Viability EC50
experimental_readout: EC50

molecule="O=C1CCC(N2Cc3cc(CNC(=O)C(F)(F)c4ccc(Cl)cc4)ccc3C2=O)C(=O)N1 (stereo not shown) [Compound 1]" experimental_readout=EC50 value="6 nM"

###

Tested on: THP-1
Experiment: IncuCyte Kinetic Caspase-3/7 Apoptosis Assay
Assay type: cell-based
Settings: Homo sapiens, all time points, read-out: apoptosis EC50
experimental_readout: EC50

molecule="O=C1CCC(N2Cc3cc(CNC(=O)C(F)(F)c4ccc(Cl)cc4)ccc3C2=O)C(=O)N1 (stereo not shown) [Compound 1]" value="> 10 µM"

###

Test system: AML cell lines
Assay: IncuCyte Kinetic Caspase-3/7 Apoptosis Assay, panel of twenty AML cell lines
Assay type: cell-based
Conditions: Homo sapiens, 48 h, four least sensitive cell lines (UT-7, F36-P, MOLM-13, OCI-AML3); 48 hours; read-out: apoptosis average EC50 48hr
pEC50: −log10 of the molar value.
experimental_readout: pEC50

molecule="O=C1CCC(N2Cc3cc(CNC(=O)C(F)(F)c4ccc(Cl)cc4)ccc3C2=O)C(=O)N1 (stereo not shown)" experimental_readout=pEC50 value=6.34

###

System: DG-75
Assay: CellTiter-Glo (CTG) cell proliferation assay, 72 hours
Assay type: cell-based
Conditions: Homo sapiens, Burkitt Lymphoma
Experimental: Preparation of Solutions of Test Article: Compounds were plated into black 384-well plates (Corning Inc.) to a final DMSO volume of 0.1% assuming a maximal volume of 50 μL. […] Cell Proliferation Assays: The effect of Compound 1 on the proliferation/viability of the hematological cell lines (Table 1 Table, Table 2 and Table 3), THLE-2, or PBMCs was assessed after 72 hours incubation using CTG (Promega), according to manufacturer's instructions. […]
experimental_readout: IC50

compound="O=C1CCC(N2Cc3cc(CNC(=O)C(F)(F)c4ccc(Cl)cc4)ccc3C2=O)C(=O)N1 (stereo not shown) [Compound 1]" experimental_readout=IC50 value="> 10 µM"

###

Test system: MUTZ-8
Experiment: IncuCyte Kinetic Caspase-3/7 Apoptosis Assay
Format: cell-based
Settings: Homo sapiens, 24 hr, read-out: Compound 1-induced Apoptosis EC50
experimental_readout: EC50 (nM)

molecule="O=C1CCC(N2Cc3cc(CNC(=O)C(F)(F)c4ccc(Cl)cc4)ccc3C2=O)C(=O)N1 (stereo not shown) [Compound 1]" target_or_test_system=MUTZ-8 value=88

###

Test system: SIG-M5
Test: IncuCyte Kinetic Caspase-3/7 Apoptosis Assay
Type: cell-based
Settings: Homo sapiens, 72 hr, read-out: Compound 1-induced Apoptosis EC50
pEC50: −log10 of the molar value.
experimental_readout: pEC50

compound="O=C1CCC(N2Cc3cc(CNC(=O)C(F)(F)c4ccc(Cl)cc4)ccc3C2=O)C(=O)N1 (stereo not shown)" experimental_readout=pEC50 value=7.30
